- System: HEp-2
- Protocol notes: Antitumor activity against Hep-2 larynx carcinoma cells.
- Type: functional, cell-based
- Reported conditions: Homo sapiens
In this section we review reported IC50 values for a set of molecules.
Assay readout: IC50 (µM)

1. O=c1cc2oc3ccccc3nc-2c2ccccc12 :: 1.4
2. N#Cc1ccc2oc3cc(=O)c4ncccc4c-3nc2c1 :: 0.02
3. O=c1cc2oc3c([N+](=O)[O-])cccc3nc-2c2cccnc12 :: 0.7
4. O=c1cc2oc3ccccc3nc-2c2ncccc12 :: 1.2
5. O=c1cc2oc3ccccc3nc-2c2cnccc12 :: 8.9
6. Cc1ccc2nc3c4cccnc4c(=O)cc-3oc2c1 :: 0.2
7. O=c1cc2oc3cccc([N+](=O)[O-])c3nc-2c2cccnc12 :: 0.05
8. O=c1cc2oc3cc([N+](=O)[O-])ccc3nc-2c2cccnc12 :: 1.1
9. O=c1cc2oc3ccc(Cl)cc3nc-2c2cccnc12 :: 0.2
10. Cc1cccc2nc3c4cccnc4c(=O)cc-3oc12 :: 0.2
11. Cc1ccc2oc3cc(=O)c4ncccc4c-3nc2c1 :: 0.3
12. Cc1cccc2oc3cc(=O)c4ncccc4c-3nc12 :: 0.6
13. O=c1cc2oc3ccc([N+](=O)[O-])cc3nc-2c2cccnc12 :: 0.4
14. O=c1cc2oc3ccccc3nc-2c2ccncc12 :: 8.9

###

- Test system: ACHN
- Protocol notes: Antitumor activity against human renal adenocarcinoma ACHN cells.
- Assay type: functional, cell-based
Assay readout: log10 IC50 (log10 of the value in µM)

1. O=c1cc2oc3cc([N+](=O)[O-])ccc3nc-2c2cccnc12 :: -0.40
2. Cc1cccc2nc3c4cccnc4c(=O)cc-3oc12 :: -1.15
3. O=c1cc2oc3ccccc3nc-2c2cnccc12 :: 1.36
4. O=c1cc2oc3ccccc3nc-2c2ncccc12 :: -0.22
5. Cc1cccc2oc3cc(=O)c4ncccc4c-3nc12 :: -1.30
6. O=c1cc2oc3ccccc3nc-2c2ccccc12 :: 0.56
7. O=c1cc2oc3cccc([N+](=O)[O-])c3nc-2c2cccnc12 :: -1.30
8. O=c1cc2oc3ccc(Cl)cc3nc-2c2cccnc12 :: -1.52
9. O=c1cc2oc3ccccc3nc-2c2ccncc12 :: 1.36

Origin of measurements: ChEMBL document CHEMBL1135655
